Listing of entries alongside the reported pIC50.
Target: human TLR8 (Homo sapiens)
Construct: host or cells: HEK-Blue cells
Sequence (Q9NR97 27-1041): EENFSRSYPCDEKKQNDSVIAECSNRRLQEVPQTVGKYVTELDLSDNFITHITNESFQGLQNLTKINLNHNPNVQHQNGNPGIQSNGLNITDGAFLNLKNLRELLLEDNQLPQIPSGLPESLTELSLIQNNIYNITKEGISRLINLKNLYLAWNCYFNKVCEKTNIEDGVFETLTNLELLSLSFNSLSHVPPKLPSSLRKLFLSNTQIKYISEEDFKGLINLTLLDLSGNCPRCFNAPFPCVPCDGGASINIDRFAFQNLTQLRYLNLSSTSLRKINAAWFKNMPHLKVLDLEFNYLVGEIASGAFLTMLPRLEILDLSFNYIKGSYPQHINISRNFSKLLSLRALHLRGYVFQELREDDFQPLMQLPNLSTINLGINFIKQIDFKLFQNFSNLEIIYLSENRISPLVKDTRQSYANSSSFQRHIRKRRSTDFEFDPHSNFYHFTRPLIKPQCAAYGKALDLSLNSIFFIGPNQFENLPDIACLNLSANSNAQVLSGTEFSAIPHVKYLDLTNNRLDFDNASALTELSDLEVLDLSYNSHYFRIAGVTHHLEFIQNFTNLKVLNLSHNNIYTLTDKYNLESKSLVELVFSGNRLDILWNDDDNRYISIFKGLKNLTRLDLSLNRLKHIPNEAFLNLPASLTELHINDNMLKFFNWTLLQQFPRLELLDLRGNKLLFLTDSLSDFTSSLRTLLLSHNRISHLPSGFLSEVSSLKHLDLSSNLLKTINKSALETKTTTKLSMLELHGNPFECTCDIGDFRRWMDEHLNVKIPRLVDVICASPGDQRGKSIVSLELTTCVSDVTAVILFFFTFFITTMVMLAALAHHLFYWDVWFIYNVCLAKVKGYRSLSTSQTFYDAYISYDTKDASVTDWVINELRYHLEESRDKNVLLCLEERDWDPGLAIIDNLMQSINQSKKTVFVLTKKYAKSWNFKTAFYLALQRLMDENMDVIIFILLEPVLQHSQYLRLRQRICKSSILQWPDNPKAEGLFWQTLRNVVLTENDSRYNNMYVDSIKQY
Experiment: TLR8 inhibition reporter assay (HEK-Blue SEAP reporter)
Format: cell-based
Details: HEK-Blue cells overexpressing human TLR8; R848 15.9 μM; 22 hour incubation
pIC50: −log10 of the molar value.
MEASUREMENT_KIND: pIC50

• COc1ccc(-c2[nH]c3ccc(NC(=O)[C@@H]4CCCC[C@@H]4N)cc3c2C(C)C)cc1OC [Example 21] = 7.12
• CCc1c(-c2ccc(OC)c(OC)c2)[nH]c2cc(C)c(N3CCN(CCNC)CC3)cc12 [Example 144] = 7.35
• CCc1c(-c2ccc(OC)c(OC)c2)[nH]c2cc(C(C)C)c(N3CCN(C4CCN(C(C)C)CC4)CC3)cc12 [Example 69] = 4.84
• CCc1c(-c2ccc(OC)c(OC)c2)[nH]c2ccc(N3CCC(OC4CCN(C)CC4)CC3)cc12 [Example 134] = 7.03
• COc1ccc(-c2[nH]c3ccc(N4CCC(N5CC(C)OC(C)C5)CC4)cc3c2C(C)C)cc1OC (stereo not shown) [Example 80] = 7.72
• COc1ccc(-c2[nH]c3ccc(N4CCCC5CN(Cc6ccccc6)CC54)cc3c2C(C)C)cc1OC (stereo not shown) [Example 118] = 6.49
